- target_or_test_system: T1, G9a and GLP (Homo sapiens, UniProt Q96KQ7+Q9H9B1)
- T1 sequence (Q96KQ7 2-1210 limits assumed): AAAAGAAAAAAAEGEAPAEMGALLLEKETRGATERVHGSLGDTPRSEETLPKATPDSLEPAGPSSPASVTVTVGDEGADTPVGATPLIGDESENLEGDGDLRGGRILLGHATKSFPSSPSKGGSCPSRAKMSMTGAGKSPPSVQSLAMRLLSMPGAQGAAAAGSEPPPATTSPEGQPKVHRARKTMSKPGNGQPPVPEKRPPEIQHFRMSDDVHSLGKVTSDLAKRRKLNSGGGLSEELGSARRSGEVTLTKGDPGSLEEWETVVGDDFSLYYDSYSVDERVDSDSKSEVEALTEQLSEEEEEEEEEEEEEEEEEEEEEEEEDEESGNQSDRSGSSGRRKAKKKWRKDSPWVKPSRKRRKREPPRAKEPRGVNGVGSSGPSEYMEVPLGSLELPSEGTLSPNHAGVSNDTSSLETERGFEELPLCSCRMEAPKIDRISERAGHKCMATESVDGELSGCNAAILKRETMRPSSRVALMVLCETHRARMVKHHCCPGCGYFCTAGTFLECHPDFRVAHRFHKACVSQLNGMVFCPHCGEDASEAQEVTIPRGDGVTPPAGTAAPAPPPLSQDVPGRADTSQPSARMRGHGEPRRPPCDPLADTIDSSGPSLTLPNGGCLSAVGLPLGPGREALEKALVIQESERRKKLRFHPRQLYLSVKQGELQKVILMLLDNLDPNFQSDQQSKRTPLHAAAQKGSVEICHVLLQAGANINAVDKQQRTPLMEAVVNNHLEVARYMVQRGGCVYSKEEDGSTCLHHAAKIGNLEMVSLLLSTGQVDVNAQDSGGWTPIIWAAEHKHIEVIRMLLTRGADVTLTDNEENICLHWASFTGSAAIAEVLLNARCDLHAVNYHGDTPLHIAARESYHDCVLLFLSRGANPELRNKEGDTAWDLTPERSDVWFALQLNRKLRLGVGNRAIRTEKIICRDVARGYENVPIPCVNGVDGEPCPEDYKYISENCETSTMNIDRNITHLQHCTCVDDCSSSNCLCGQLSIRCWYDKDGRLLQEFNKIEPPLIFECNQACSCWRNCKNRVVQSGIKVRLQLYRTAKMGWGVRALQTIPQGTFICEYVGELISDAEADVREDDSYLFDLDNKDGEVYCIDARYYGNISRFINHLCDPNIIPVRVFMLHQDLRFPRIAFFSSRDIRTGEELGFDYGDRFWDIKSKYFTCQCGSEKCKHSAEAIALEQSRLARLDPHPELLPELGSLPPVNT
- T1 sequence (Q9H9B1 2-1298 limits assumed): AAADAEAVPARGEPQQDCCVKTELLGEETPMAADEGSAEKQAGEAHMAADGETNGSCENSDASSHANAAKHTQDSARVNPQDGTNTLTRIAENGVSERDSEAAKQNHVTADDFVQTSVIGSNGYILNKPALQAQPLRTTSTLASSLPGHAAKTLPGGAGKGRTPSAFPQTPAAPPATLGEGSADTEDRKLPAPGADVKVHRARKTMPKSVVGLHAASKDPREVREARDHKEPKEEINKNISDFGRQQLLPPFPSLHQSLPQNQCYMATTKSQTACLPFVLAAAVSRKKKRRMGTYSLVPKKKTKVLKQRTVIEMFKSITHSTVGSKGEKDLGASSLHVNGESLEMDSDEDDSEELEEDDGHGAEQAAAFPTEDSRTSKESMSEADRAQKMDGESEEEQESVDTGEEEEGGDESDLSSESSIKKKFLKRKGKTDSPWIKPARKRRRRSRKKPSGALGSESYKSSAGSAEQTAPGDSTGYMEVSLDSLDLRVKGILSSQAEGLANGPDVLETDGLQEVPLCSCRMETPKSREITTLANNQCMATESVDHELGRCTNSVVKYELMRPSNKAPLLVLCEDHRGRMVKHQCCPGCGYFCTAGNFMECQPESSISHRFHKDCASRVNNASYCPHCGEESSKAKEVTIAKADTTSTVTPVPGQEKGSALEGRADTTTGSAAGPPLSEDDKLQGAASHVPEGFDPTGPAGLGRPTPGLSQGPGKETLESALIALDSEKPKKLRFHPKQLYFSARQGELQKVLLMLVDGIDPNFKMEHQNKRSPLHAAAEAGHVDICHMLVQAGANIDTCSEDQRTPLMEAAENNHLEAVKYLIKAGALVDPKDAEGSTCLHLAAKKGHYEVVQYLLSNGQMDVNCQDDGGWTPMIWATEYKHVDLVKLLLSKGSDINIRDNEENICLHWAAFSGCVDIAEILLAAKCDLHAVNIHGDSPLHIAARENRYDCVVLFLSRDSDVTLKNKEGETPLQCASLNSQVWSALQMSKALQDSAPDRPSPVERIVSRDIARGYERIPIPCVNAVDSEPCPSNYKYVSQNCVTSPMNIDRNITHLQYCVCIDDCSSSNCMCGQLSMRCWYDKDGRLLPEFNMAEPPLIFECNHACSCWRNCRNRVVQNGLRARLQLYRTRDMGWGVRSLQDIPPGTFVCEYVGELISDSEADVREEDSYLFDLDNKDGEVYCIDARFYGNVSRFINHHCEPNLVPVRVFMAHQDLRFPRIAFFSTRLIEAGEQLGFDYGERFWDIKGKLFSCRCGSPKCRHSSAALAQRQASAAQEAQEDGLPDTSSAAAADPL
- assay_comment: Triple SILAC pull-down after UNC0638 treatment of 293T cells, DMSO/UNC0638 ratio of protein captured by 3×MBT;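 note: mass spectrometry (Q-Exactive) SILAC quantitation, DMSO/UNC0638 ratio computed after subtracting 3×MBTD355N mutant pull-down background, only proteins with at least twofold 3×MBT over mutant signal considered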
- Assay type: cell-based
- Design: endogenous in cells; host or cells: HEK 293T
- test_conditions: SILAC ratio DMSO/UNC0638 of protein pulled down with 3xMBT; UNC0638 in heavy SILAC media
Give measured Relative to UNC0638 UNC Heavy for each item. Keep answers brief.
Field format: number, assumed log base 2, no unit text.

stdin: Identify the reported Relative to UNC0638 UNC Heavy for the following entry. EEF1D (protein, UniProt P29692 2-281, looked up) Elongation factor 1-delta: ATNFLAHEKIWFDKFKYDDAERRFYEQMNGPVAGASRQENGASVILRDIARARENIQKSLAGSSGPGASSGTSGDHGELVVRIASLEVENQSLRGVVQELQQAISKLEARLNVLEKSSPGHRATAPQTQHVSPMRQVEPPAKKPATPAEDDEDDDIDLFGSDNEEEDKEAAQLREERLRQYAEKKAKKPALVAKSSILLDVKPWDDETDMAQLEACVRSIQLDGLVWGASKLVPVGYGIRKLQIQCVVEDDKVGTDLLEEEITKFEEHVQSVDIAAFNKI
stdout: 0.11

stdin: Identify the reported Relative to UNC0638 UNC Heavy for the following entry. KIN (protein, UniProt O60870 1-393, looked up) DNA/RNA-binding protein KIN17: MGKSDFLTPKAIANRIKSKGLQKLRWYCQMCQKQCRDENGFKCHCMSESHQRQLLLASENPQQFMDYFSEEFRNDFLELLRRRFGTKRVHNNIVYNEYISHREHIHMNATQWETLTDFTKWLGREGLCKVDETPKGWYIQYIDRDPETIRRQLELEKKKKQDLDDEEKTAKFIEEQVRRGLEGKEQEVPTFTELSRENDEEKVTFNLSKGACSSSGATSSKSSTLGPSALKTIGSSASVKRKESSQSSTQSKEKKKKKSALDEIMEIEEEKKRTARTDYWLQPEIIVKIITKKLGEKYHKKKAIVKEVIDKYTAVVKMIDSGDKLKLDQTHLETVIPAPGKRILVLNGGYRGNEGTLESINEKTFSATIVIETGPLKGRRVEGIQYEDISKLA
stdout: 0.35

stdin: Identify the reported Relative to UNC0638 UNC Heavy for the following entry. DUT (protein, UniProt P33316 70-252, looked up) Deoxyuridine 5'-triphosphate …: ASTVGAAGWKGELPKAGGSPAPGPETPAISPSKRARPAEVGGMQLRFARLSEHATAPTRGSARAAGYDLYSAYDYTIPPMEKAVVKTDIQIALPSGCYGRVAPRSGLAAKHFIDVGAGVIDEDYRGNVGVVLFNFGKEKFEVKKGDRIAQLICERIFYPEIEEVQALDDTERGSGGFGSTGKN
stdout: 0.62

stdin: Identify the reported Relative to UNC0638 UNC Heavy for the following entry. GNB1L (protein, UniProt Q9BYB4 1-327, looked up) Guanine nucleotide-binding …: MTAPCPPPPPDPQFVLRGTQSPVHALHFCEGAQAQGRPLLFSGSQSGLVHIWSLQTRRAVTTLDGHGGQCVTWLQTLPQGRQLLSQGRDLKLCLWDLAEGRSAVVDSVCLESVGFCRSSILAGGQPRWTLAVPGRGSDEVQILEMPSKTSVCALKPKADAKLGMPMCLRLWQADCSSRPLLLAGYEDGSVVLWDVSEQKVCSRIACHEEPVMDLDFDSQKARGISGSAGKALAVWSLDWQQALQVRGTHELTNPGIAEVTIRPDRKILATAGWDHRIRVFHWRTMQPLAVLAFHSAAVQCVAFTADGLLAAGSKDQRISLWSLYPRA
stdout: 0.25

// data source = patent US20140274782A1
